# system.under.test: Adenosine receptor A3 (Rattus norvegicus, UniProt P28647)
# Sequence (P28647 whole entry): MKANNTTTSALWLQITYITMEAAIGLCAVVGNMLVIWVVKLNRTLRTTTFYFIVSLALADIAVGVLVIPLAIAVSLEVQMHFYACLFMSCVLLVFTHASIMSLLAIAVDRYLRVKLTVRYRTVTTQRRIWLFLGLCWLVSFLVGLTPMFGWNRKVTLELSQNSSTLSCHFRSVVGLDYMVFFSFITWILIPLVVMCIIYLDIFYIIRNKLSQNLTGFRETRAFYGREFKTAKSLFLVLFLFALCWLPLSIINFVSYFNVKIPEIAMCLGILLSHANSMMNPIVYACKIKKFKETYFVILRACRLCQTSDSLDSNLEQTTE
# procedure.text: Displacement of [125I]AB-MECA from cloned rat Adenosine A3 receptor in stably transfected CHO cells
measured.quantity: Ki
Report the figure along with its unit, number first.

The examples below pair each entry with its known result.
CCNC(=O)[C@H]1O[C@@H](n2cnc3c(NC(=O)Nc4cccc(Cl)c4)ncnc32)[C@H](O)[C@@H]1O	4.4 nM
CCNC(=O)[C@H]1O[C@@H](n2cnc3c(NC(=O)Nc4ccccc4I)ncnc32)[C@H](O)[C@@H]1O	32 nM
CNC(=O)[C@H]1O[C@@H](n2cnc3c(NC(=O)Nc4ccc(OC)cc4)ncnc32)[C@H](O)[C@@H]1O	56 nM
CCNC(=O)[C@H]1O[C@@H](n2cnc3c(NC(=O)Nc4ccc(OC)cc4)ncnc32)[C@H](O)[C@@H]1O	6.6 nM
CCNC(=O)[C@H]1O[C@@H](n2cnc3c(NC(=O)Nc4ccc(C)cc4)ncnc32)[C@H](O)[C@@H]1O	32.3 nM
CCNC(=O)[C@H]1O[C@@H](n2cnc3c(NC(=O)Nc4ccccc4C(F)(F)F)ncnc32)[C@H](O)[C@@H]1O	54 nM
CCNC(=O)[C@H]1OC(n2cnc3c(NC(=O)Nc4cccc(C(F)(F)F)c4)ncnc32)[C@H](O)[C@@H]1O (stereo partly drawn)	77 nM

Okay, next one:
q: // lookup Ki for "CCNC(=O)[C@H]1O[C@@H](n2cnc3c(NC(=O)Nc4ccc(I)cc4)ncnc32)[C@H](O)[C@@H]1O"
a: 101 nM
